These data points were gathered from paper PMC6691884.

# Tested target: FtuCA (Francisella tularensis, UniProt Q5NH77)
# Construct: gene cynT
# Sequence (Q5NH77 1-228): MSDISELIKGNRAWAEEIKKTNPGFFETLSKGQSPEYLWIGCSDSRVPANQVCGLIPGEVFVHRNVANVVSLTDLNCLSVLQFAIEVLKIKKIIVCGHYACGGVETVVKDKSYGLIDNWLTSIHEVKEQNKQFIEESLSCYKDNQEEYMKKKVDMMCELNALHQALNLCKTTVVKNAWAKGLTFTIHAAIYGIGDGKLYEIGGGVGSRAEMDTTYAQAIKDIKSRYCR
# Measurement setup: activation constant (not association constant); activator; CO2 substrate; 10 mM Tris pH 8.4, 0.1 M Na2SO4, 25 °C; 15 min pre-incubation
Reported KA (μM)^a / FtuCA^c values for a set of compounds
Metric name: KA (μM)^a / FtuCA^c (µM)

                           molecule          metric_name  recorded_measurement
0     N[C@H](Cc1ccc(O)c(O)c1)C(=O)O  KA (μM)^a / FtuCA^c                  44.8
1                       NCCN1CCNCC1  KA (μM)^a / FtuCA^c                  51.8
2            NC(=O)CC[C@H](N)C(=O)O  KA (μM)^a / FtuCA^c                  45.7
3   N[C@H](Cc1c[nH]c2ccccc12)C(=O)O  KA (μM)^a / FtuCA^c                  30.5
4  N[C@@H](Cc1c[nH]c2ccccc12)C(=O)O  KA (μM)^a / FtuCA^c                  34.1
5        N[C@@H](Cc1cnc[nH]1)C(=O)O  KA (μM)^a / FtuCA^c                  40.7
6           N[C@@H](CCC(=O)O)C(=O)O  KA (μM)^a / FtuCA^c                  9.13
7                        NCc1ccccn1  KA (μM)^a / FtuCA^c                  46.3
